- Tgt: T1, Native human IL-23 (human, UniProt Q9NPF7 20-189; P29460 23-328)
- T1 sequence 1: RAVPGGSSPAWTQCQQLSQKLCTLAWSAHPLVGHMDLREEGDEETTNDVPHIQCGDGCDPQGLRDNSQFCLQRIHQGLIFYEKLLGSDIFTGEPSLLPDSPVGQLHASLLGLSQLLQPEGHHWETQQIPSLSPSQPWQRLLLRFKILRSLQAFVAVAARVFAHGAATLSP
- T1 sequence 2: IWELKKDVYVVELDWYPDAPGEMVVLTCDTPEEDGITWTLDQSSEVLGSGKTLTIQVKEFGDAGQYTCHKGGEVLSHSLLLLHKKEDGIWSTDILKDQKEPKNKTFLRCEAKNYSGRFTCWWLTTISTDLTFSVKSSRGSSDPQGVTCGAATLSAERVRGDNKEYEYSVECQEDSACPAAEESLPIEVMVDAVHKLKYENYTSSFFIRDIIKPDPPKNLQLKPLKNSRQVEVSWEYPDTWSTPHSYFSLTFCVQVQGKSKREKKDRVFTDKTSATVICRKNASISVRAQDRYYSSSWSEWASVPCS
- Method: cell-based or functional assay
Assay Readout: IC50 (pM), STAT-luciferase assay

Short answer for Antibody C (antibody, V domains shown, also called VH10/VL10) VH: QVQLQESGPGLVKPSQTLSLTCTVSGGSINSGGYYWSWIRQHPGKGLEWIGYIYYSGSSYYNPSLKSRVTISVDTSQNQFSLKLSSVTAADTAVYYCARDRGHYYGMDVWGQGTTVTVSS VL: DIQMTQSPSSVSASVGDRVTITCRASQGSSSWFAWYQQKPGKAPKLLIYAASSLQSGVPSRFSGSGSGTDFTLTISSLQPEDFATYYCQQANSFPFTFGPGTKVDIK : IC50 (pM), STAT-luciferase assay was 107 pM

Measured values drawn from patent US20200181255A1 for this set.
